src = patent US20250257130A1

Molecular target: T1, human ROR1 on cells (HEK293T-hROR1, PANC-1, A549) (human, UniProt Q01973 30-937)
T1 construct: whole, on cells; one molecule for the three cell lines; also called huROR1; cell surface ROR1
T1 sequence (Q01973 30-937): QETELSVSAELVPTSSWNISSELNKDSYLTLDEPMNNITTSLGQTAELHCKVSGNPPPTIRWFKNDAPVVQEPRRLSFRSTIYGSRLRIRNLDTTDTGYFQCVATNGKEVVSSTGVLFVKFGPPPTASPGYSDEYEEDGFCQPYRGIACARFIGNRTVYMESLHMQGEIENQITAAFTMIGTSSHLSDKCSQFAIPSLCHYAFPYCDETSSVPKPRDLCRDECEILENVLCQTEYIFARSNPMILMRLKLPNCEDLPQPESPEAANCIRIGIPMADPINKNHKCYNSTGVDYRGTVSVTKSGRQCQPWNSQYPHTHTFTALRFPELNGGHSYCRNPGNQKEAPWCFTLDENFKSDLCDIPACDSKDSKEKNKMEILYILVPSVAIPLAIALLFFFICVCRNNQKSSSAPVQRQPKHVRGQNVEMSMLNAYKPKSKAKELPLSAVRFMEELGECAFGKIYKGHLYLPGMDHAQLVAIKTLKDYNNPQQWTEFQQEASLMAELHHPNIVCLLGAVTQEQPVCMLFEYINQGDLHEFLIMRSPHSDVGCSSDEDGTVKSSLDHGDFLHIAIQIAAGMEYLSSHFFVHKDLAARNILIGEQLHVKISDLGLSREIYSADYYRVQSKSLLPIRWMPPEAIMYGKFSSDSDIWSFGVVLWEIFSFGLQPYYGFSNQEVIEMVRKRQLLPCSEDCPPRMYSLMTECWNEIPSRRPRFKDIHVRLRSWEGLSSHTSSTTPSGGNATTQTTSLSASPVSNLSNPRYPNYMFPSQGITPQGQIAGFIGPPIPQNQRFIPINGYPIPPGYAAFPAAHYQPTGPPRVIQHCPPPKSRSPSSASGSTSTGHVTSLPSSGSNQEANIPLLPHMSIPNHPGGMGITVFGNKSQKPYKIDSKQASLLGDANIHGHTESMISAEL
Assay: flow cytometry on PANC-1 cells, MFI (Median-APC) [middle panel, letter not given]
property-label: EC50 (read off the curve)

Exercise: Recorded EC50 (read off the curve) of PR007418 (antibody, V domains shown, bivalent form (HCAb) variant of PR005340, no light chain) VH: EVQLVESGGGLVKPGGSLRLSCAASGFTFSDFYMSWIRQAPGKGLEWISYIDSSGRPLAYADSVKGRFTISRDNAKNSLYLQMNSLRAEDTAIYYCARDIPSSSSDWVDLQFDYWGQGTLVTVSS , please.
Key: ~0.4 nM

Next binder, EC50 (read off the curve) to be filled in.
Exercise: So what's the measured EC50 (read off the curve) for this one? PR007414 (antibody, V domains shown, bivalent form (HCAb) variant of PR005340, no light chain) VH: EVQLVESGGGLVKPGGSLRLSCAASGFTFSDFYMSWIRQAPGKGLEWISYISSSGSTRYYADSVKGRFTISRDNAKNSLYLQMNSLRAEDTAIYYCARDMPSSSSDWVDLQFDYWGQGTLVTVSS
Key: ~0.5 nM
